# Tested on: semi-in-vivo pollen tubes
# test-protocol: Gelatin-beads assay, wild-type semi-in-vivo pollen tubes
# Format: cell-based, Arabidopsis
# details: gelatin beads containing 250 nM peptide; Tukey−Kramer test, P < 0.05
measured-quantity: pollen tube attraction activity (in words)

molecule: R68A: R68A mutant AtLURE1.2 peptide (protein, UniProt Q4VP08 20-90, looked up, variant R68A) Protein LURE 1.2: TLINGSSDEERTYSFSPTTSPFDPRSLNQELKIGRIGYCFDCARACMRAGKYIRTCSFERKLCRCSISDIK
observed: little effect
--
molecule: R79A: R79A mutant AtLURE1.2 peptide (protein, UniProt Q4VP08 20-90, looked up, variant R79A) Protein LURE 1.2: TLINGSSDEERTYSFSPTTSPFDPRSLNQELKIGRIGYCFDCARACMRRGKYIRTCSFEAKLCRCSISDIK
observed: little effect
--
molecule: R73A: R73A mutant AtLURE1.2 peptide (protein, UniProt Q4VP08 20-90, looked up, variant R73A) Protein LURE 1.2: TLINGSSDEERTYSFSPTTSPFDPRSLNQELKIGRIGYCFDCARACMRRGKYIATCSFERKLCRCSISDIK
observed: little effect

These entries and their values trace back to paper PMC5673899.
